Just for reference, patent EP4628505A1 is where these values come from.

Biological target: T1, recombinant human CTLA-4 (human, UniProt P16410 36-161, limits assumed)
T1 construct: also called CTLA4 antigen
T1 sequence (looked up): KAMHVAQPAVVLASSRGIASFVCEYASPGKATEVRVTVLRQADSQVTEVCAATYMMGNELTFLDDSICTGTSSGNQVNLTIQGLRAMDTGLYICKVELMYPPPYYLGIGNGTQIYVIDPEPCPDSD
Experiment: Octet (BLI), 1:1 binding model
Items are presented alongside their recorded pKd.
API: returns pKd as number; meaning -log10 of concentration in mol/L.

>  <binder>
GBD008-hS019-4 (antibody, V domains shown, Humanized heavy chain-only antibody (VHH-Fc), no light chain) VH: EVQLLESGGGLVQPGGSLRLSCAASGFTFSSYTMAWYRQAPGKEREVVAGISRSGGTTNYGDSVKGRFTISRDNSKNTLYLQMNSLRAEDTAVYYCRAVSDYWGQGTLVTVSS

>  <pKd>
9.63

$$$$

// switching to the query binder
Looking for the measured pKd of GBD008-S004 (antibody, V domains shown, Heavy chain-only antibody (VHH-Fc), no light chain) VH: EVQLVESGGGLVQAGGSLRLSCLASGRTFSSYDMGWFRQAPGKEREFVAAISWGGVNTYYADSVKGRFTISRDNAKNTVYLQMNSLKPEDTAVYYCARGSAPYSSSRSSAQETYAQWGQGTQVTVSS , can you help?
7.54
